Assay: Protease stability in simulated intestinal fluids (FaSSIF) (Table 7)
Type: in vitro ADME
Conditions: fassif with pancreatin, 120 min, 37° C., read-out: Remaining percentage of peptide compound, FaSSIF 120 (min)
Protocol: Studies were carried out in simulated intestinal fluid (SIF) and simulated gastric fluid (SGF) to evaluate gastric stability of the peptide compounds disclosed herein. […] To 76 μL of the Pepsin-SGF buffer, 4 μL of the 20 μM peptide stock solution was added and incubated at 37° C. […] The samples were centrifuged for 20 minutes and an aliquot of the supernatant 100 μL were transferred to a LoBind-MTP plate and analyzed by LCMS/MS. […]
Numbered stars: 1 amine (or outer) side, 2 acyl side, 3 side chain; on linkers, the order of the positions; unused ones are H or OH. Bridge positions count the residues as written; N and C are the ends. Square brackets hold non-standard residues; d marks the D form. Peptide text beside a SMILES is read from it. * marks the point of attachment. Lys(Me,(CH2)4NMe(CH2)5CO) = CN(CCCCCC(=O)[*:3])CCCCN(C)CCCC[C@H](N[*:1])C(=O)[*:2]; Trp(7-Me) = Cc1cccc2c(C[C@H](N)C(=O)O)c[nH]c12; 2Nal = N[C@@H](Cc1ccc2ccccc2c1)C(=O)O; 3Pal = N[C@@H](Cc1cccnc1)C(=O)O; Thp = NC1(C(=O)O)CCOCC1; Me2NCH2CH2 = CN(C)CC*; Aib = CC(C)(N)C(=O)O; Sar = CNCC(=O)O
Test Readout: remaining at 2 h, 1 µM (%)
The response must be a number in % with no trailing unit.

QUERY: # input compound: CC(=O)NCCCC[C@@H]1NC(=O)[C@H](Cc2c[nH]c3c(C)cccc23)NC(=O)CCCCCN(C)CCCCN(C)CCCC[C@@H](C(=O)N[C@@H](CC(N)=O)C(=O)N[C@@H](Cc2cccnc2)C(=O)N(C)CC(N)=O)NC(=O)C(C)(C)NC(=O)[C@H](Cc2ccc3ccccc3c2)NC(=O)[C@H](Cc2ccc(OCCN(C)C)cc2)NC(=O)C2(CCOCC2)NC1=O [compound 18] ([Trp(7-Me)]K(Ac)[Thp]Y(Me2NCH2CH2)[2Nal][Aib][Lys(Me,(CH2)4NMe(CH2)5CO)]N[3Pal][Sar]-NH2; lactam N-7) ; wanted: its remaining at 2 h, 1 µM
RESULT: 88

====

test: Protease stability in simulated intestinal fluids (FaSSIF) (Table 7); assay type: in vitro ADME; conditions: fassif with pancreatin, 240 min, 37° C., read-out: Remaining percentage of peptide compound, FaSSIF 240 (min)
Numbered stars: 1 amine (or outer) side, 2 acyl side, 3 side chain; on linkers, the order of the positions; unused ones are H or OH. Bridge positions count the residues as written; N and C are the ends. Square brackets hold non-standard residues; d marks the D form. Peptide text beside a SMILES is read from it. * marks the point of attachment. Lys(Me,(CH2)4NMe(CH2)5CO) = CN(CCCCCC(=O)[*:3])CCCCN(C)CCCC[C@H](N[*:1])C(=O)[*:2]; Lys(Me,(CH2)4NMe(CH2)4CO) = CN(CCCCC(=O)[*:3])CCCCN(C)CCCC[C@H](N[*:1])C(=O)[*:2]; Trp(7-Me) = Cc1cccc2c(C[C@H](N)C(=O)O)c[nH]c12; 2Nal = N[C@@H](Cc1ccc2ccccc2c1)C(=O)O; C12 diacid = O=C(O)CCCCCCCCCCC(=O)*; 3Pal = N[C@@H](Cc1cccnc1)C(=O)O; Aun = NCCCCCCCCCCC(=O)O; Thp = NC1(C(=O)O)CCOCC1; Me2NCH2CH2 = CN(C)CC*; Aib = CC(C)(N)C(=O)O; Sar = CNCC(=O)O
Test Readout: remaining at 4 h, 1 µM (%)
The response must be a number in % with no trailing unit.

Examples from the recorded data:
Cc1cccc2c(C[C@@H]3NC(=O)CCCCN(C)CCCCN(C)CCCC[C@@H](C(=O)NCC(=O)N[C@@H](Cc4cccnc4)C(=O)N(C)CC(N)=O)NC(=O)C(C)(C)NC(=O)[C@H](Cc4ccc5ccccc5c4)NC(=O)[C@H](Cc4ccc(OCCN(C)C)cc4)NC(=O)C4(CCOCC4)NC(=O)[C@H](CCC(N)=O)NC3=O)c[nH]c12 [compound 28] ([Trp(7-Me)]Q[Thp]Y(Me2NCH2CH2)[2Nal][Aib][Lys(Me,(CH2)4NMe(CH2)4CO)]G[3Pal][Sar]-NH2; lactam N-7)	98
CC(=O)NCCCC[C@@H]1NC(=O)[C@H](Cc2c[nH]c3c(C)cccc23)NC(=O)CCCCCCCCCCNC(=O)CC[C@@H](C(=O)N[C@@H](CC(N)=O)C(=O)N[C@@H](Cc2cccnc2)C(=O)N(C)CC(N)=O)NC(=O)C(C)(C)NC(=O)[C@H](Cc2ccc3ccccc3c2)NC(=O)[C@H](Cc2ccc(OCCN(C)C)cc2)NC(=O)C2(CCOCC2)NC1=O [compound 16] ([Aun][Trp(7-Me)]K(Ac)[Thp]Y(Me2NCH2CH2)[2Nal][Aib]EN[3Pal][Sar]-NH2; lactam N-8)	84
CC(=O)NCCCC[C@@H]1NC(=O)[C@H](Cc2c[nH]c3c(C)cccc23)NC(=O)CCCCCN(C)CCCCN(C)CCCC[C@@H](C(=O)N[C@@H](CC(N)=O)C(=O)N[C@@H](Cc2cccnc2)C(=O)N(C)CC(N)=O)NC(=O)C(C)(C)NC(=O)[C@H](Cc2ccc3ccccc3c2)NC(=O)[C@H](Cc2ccc(OCCN(C)C)cc2)NC(=O)C2(CCOCC2)NC1=O [compound 18] ([Trp(7-Me)]K(Ac)[Thp]Y(Me2NCH2CH2)[2Nal][Aib][Lys(Me,(CH2)4NMe(CH2)5CO)]N[3Pal][Sar]-NH2; lactam N-7)	85
CC(=O)NCCCC[C@@H]1NC(=O)[C@H](Cc2c[nH]c3c(C)cccc23)NC(=O)CCCCN(C)CCCCN(C)CCCC[C@@H](C(=O)NCC(=O)N[C@@H](Cc2cccnc2)C(=O)N(C)CC(N)=O)NC(=O)C(C)(C)NC(=O)[C@H](Cc2ccc3ccccc3c2)NC(=O)[C@H](Cc2ccc(OCCN(C)C)cc2)NC(=O)C2(CCOCC2)NC1=O [compound 29] ([Trp(7-Me)]K(Ac)[Thp]Y(Me2NCH2CH2)[2Nal][Aib][Lys(Me,(CH2)4NMe(CH2)4CO)]G[3Pal][Sar]-NH2; lactam N-7)	90

QUERY: # input compound: Cc1cccc2c(C[C@@H]3NC(=O)CCCCCCCCCCC(=O)NCCCC[C@@H](C(=O)N[C@@H](CC(N)=O)C(=O)N[C@@H](Cc4cccnc4)C(=O)N(C)CC(N)=O)NC(=O)C(C)(C)NC(=O)[C@H](Cc4ccc5ccccc5c4)NC(=O)[C@H](Cc4ccc(OCCN(C)C)cc4)NC(=O)C4(CCOCC4)NC(=O)[C@H](CCC(N)=O)NC3=O)c[nH]c12 [compound 10] ([Trp(7-Me)]Q[Thp]Y(Me2NCH2CH2)[2Nal][Aib]KN[3Pal][Sar]-NH2; linker N-7 via C12 diacid) ; wanted: its remaining at 4 h, 1 µM
RESULT: 77

====

assay: Solubility of peptide compounds in buffer formulations (Table 5); assay type: physicochemical; conditions: aqueous buffer; 50 mM phosphate buffer pH 6.5, 2 h agitation, target 1 mg/ml; read-out: Solubility, Buffer pH 6.5
Numbered stars: 1 amine (or outer) side, 2 acyl side, 3 side chain; on linkers, the order of the positions; unused ones are H or OH. Bridge positions count the residues as written; N and C are the ends. Square brackets hold non-standard residues; d marks the D form. Peptide text beside a SMILES is read from it. * marks the point of attachment. X2 = O=C(Cc1ccc(-c2ccc(CC(=O)[*:2])cc2)cc1)[*:1]; Trp(7-Me) = Cc1cccc2c(C[C@H](N)C(=O)O)c[nH]c12; 2Nal = N[C@@H](Cc1ccc2ccccc2c1)C(=O)O; 3Pal = N[C@@H](Cc1cccnc1)C(=O)O; Thp = NC1(C(=O)O)CCOCC1; Me2NCH2CH2 = CN(C)CC*; Aib = CC(C)(N)C(=O)O; Sar = CNCC(=O)O
Test Readout: solubility at 2 h

QUERY: # input compound: Cc1cccc2c(C[C@@H]3NC(=O)Cc4ccc(cc4)-c4ccc(cc4)CC(=O)NCCCC[C@@H](C(=O)N[C@@H](CC(N)=O)C(=O)N[C@@H](Cc4cccnc4)C(=O)N(C)CC(N)=O)NC(=O)C(C)(C)NC(=O)[C@H](Cc4ccc5ccccc5c4)NC(=O)[C@H](Cc4ccc(OCCN(C)C)cc4)NC(=O)C4(CCOCC4)NC(=O)[C@H](CCC(N)=O)NC3=O)c[nH]c12 [compound 15] ([Trp(7-Me)]Q[Thp]Y(Me2NCH2CH2)[2Nal][Aib]KN[3Pal][Sar]-NH2; linker N-7 via X2) ; wanted: its solubility at 2 h
RESULT: ≥ 920 µg/mL
